- MEASUREMENT_TARGET: ALPK1 (Homo sapiens (Human), UniProt Q96QP1)
- Sequence (Q96QP1 whole entry): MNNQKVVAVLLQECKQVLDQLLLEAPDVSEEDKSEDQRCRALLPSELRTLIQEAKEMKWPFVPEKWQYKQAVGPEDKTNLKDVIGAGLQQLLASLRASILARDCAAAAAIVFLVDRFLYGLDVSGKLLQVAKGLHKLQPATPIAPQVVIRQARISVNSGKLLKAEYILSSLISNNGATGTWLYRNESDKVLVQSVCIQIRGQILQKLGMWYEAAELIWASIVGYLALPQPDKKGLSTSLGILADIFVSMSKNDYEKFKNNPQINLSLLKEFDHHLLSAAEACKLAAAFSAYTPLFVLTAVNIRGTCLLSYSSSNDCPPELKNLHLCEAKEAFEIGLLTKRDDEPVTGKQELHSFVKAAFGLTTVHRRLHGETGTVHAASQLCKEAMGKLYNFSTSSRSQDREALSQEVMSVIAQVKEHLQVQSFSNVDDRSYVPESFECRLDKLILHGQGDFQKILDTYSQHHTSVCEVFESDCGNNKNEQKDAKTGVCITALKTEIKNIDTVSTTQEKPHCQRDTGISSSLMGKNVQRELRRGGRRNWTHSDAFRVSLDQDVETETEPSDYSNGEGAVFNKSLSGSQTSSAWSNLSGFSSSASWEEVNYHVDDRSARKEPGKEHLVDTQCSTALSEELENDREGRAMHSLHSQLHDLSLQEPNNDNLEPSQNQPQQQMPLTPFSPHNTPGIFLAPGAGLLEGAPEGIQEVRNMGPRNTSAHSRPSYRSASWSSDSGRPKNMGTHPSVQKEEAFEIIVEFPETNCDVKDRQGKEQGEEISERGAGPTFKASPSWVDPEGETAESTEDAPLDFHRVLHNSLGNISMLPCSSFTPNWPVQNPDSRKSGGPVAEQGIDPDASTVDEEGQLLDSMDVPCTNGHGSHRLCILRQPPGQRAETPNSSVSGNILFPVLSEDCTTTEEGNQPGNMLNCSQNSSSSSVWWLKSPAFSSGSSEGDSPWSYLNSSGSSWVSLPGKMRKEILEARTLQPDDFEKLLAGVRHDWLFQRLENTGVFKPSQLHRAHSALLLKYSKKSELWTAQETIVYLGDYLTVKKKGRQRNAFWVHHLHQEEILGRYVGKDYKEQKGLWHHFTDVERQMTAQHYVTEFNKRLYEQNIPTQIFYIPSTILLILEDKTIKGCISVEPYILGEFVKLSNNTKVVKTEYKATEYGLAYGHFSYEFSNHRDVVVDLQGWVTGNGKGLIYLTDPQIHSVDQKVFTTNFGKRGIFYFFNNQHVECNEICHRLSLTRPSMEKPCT
- METHOD: ALPK1 in vitro kinase assay (HTRF, TIFA phosphorylation)
- Assay type: biochemical
- DETAILS: HTRF of HA-tagged TIFA; ALPK1 2 nM; ADP-Heptose as activator
REPORTED_PROPERTY: pIC50
Numbers only, as −log10 of the molar value.

COMPOUND	MEASUREMENT_TARGET	REPORTED_PROPERTY	MEASURED_NUMBER
COc1ccc(C(C)(C)c2csc(NC(=O)c3ccc(N4CCNCC4C)cc3)n2)cc1 (centres unmarked)	ALPK1 (Homo sapiens (Human), UniProt Q96QP1)	pIC50	6.52

--- query ---
pIC50 reading for COc1ccc(C(C)(C)c2csc(NC(=O)c3ccc(N4CCNCC4)cn3)n2)cc1 : 6.67
